Each record here notes measured EC50.
- measured target: T1, human PD-L1-His (Sino Biological, Cat #10084-H08H) (human, UniProt Q9NZQ7 19-238)
- T1 construct: Bought protein; also called human PD-L1 ECD-His; recombinant human PD-L1-His protein; not shown: His tag
- T1 sequence (Q9NZQ7 19-238): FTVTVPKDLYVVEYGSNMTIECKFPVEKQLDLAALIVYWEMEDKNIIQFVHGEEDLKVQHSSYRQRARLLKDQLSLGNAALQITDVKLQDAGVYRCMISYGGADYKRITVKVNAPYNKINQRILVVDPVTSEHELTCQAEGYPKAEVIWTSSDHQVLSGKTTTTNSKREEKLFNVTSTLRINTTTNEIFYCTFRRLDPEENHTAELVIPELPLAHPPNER
- experiment notes: ELISA, coated human PD-L1-His
Give just the number in nM; leave the unit off.

Reference set, count: 4
binder: 73C8 (antibody, human IgG1, V domains shown) VH: QEQLEESGGGLVQPEGSLTLTCTVSGFSFSGDYYMSWVRQAPGKGLEWVASIYTGSLNTYYATWAKGRFTISLTSSTTVTLQMTSLTAADTATYFCARRNKNADYGHFDLWGPGTLVTVSS VL: YDMTQTPASVEVAVGGTVTIKCQASQSINDRLAWYQQKPGQPPKLLIYAASTLASGVPSRFRGSGSGTDFTLTISDLECADAATYYCQQGWTVSSLDNAFGGGTEVVAM
readout units: nM
EC50: 0.016
--
binder: 62E6 (antibody, human IgG1, V domains shown) VH: QEQLEESGGDLVKPEGSLTLTCTASGFSFSGDYYMSWVRQAPGKGLEWIASIYTGSLNIYYATWAKGRFTISLTSSTTVTLQMTSLTAADTATYFCARRNKNADYGHFDLWGPGTLVTVSS VL: YDMTQTPASVEVAVGGTVTIKCQASQSINDRLAWYQQKPRQPPKLLIYGASTLASGVPSRFKGSGSGTEFTLTISDLECVDAATYYCQQGWTVSSLDNAFGGGTEVVAK
readout units: nM
EC50: 0.024
--
binder: 74F4 (antibody, human IgG1, V domains shown) VH: QEQLEESGGGLVQPEGSLTLTCTASGFSFSGDYYMSWVRQAPGKGLEWIASIYTGSLNTYYATWAKGRFTISLTSSTTVTLQMTSLTAADTATYFCARRNKNADYGHFDLWGPGTLVTVSS VL: YDMTQTPASVEVAVGGTVTIKCQASQSINDRLAWYQQSPGQPPKLLIYGASTLASGVPSRFKGSGSGTDFTLTISDLECADAATYYCQQGWTVSSLDNAFGGGTEVVAK
readout units: nM
EC50: 0.0157
--
binder: 56E5 (antibody, human IgG1, V domains shown) VH: QEQLEESGGGLVQPEGSLTLTCTASGFSFSGDYYMSWVRQAPGKGLEWIASIYTGSLNTYYATWAKGRFTISLTSSTTVTLQMTSLTAADTATYFCARRHKNADYGHFDLWGPGTLVTVSS VL: YDMTQTPGSVEVAVGGTVTIKCQASQSINDRLAWYQQTPGQPPKLLIYGASTLASGVPSRFKGSGSGTEFTLTISDLECADAATYYCQQGWTVSSLDNAFGGGTEVVAK
readout units: nM
EC50: 0.0184

Let's switch to this binder now.
State its EC50 for this binder: 28B3 (antibody, human IgG1, V domains shown) VH: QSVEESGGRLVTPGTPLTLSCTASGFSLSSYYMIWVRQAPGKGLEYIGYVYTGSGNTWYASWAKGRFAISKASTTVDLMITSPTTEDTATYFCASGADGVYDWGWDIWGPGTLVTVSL VL: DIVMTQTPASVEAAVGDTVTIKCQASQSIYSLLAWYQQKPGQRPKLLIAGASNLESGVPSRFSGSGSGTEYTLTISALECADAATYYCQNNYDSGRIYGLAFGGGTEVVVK
0.0159
